Taken from patent US20230167467A1.

Recorded change in expression of gene potC by entry
# Test system: Engineered strains of E. coli
# Type: cell-based
# Assay conditions: after solvent exposure, vs positive control
Measurement label: change in expression of gene potC

- Compound: "C=CC(C)CC (stereo not shown)"
  Endpoint value: "−0.61"
- Compound: "C=C(C)C"
  Endpoint value: "−3.91"
- Compound: "CCC(C)CC"
  Endpoint value: "−0.27"
- Compound: "CC(C)CO"
  Endpoint value: "−2.97"

----------
# System: Engineered strains of E. coli
# Assay type: cell-based
# Assay conditions: after solvent exposure, vs positive control
Recorded change in expression of gene cspF by entry

- Molecule smiles: "CC(C)=O"
  change in expression of gene cspF: "−5.06"
- Molecule smiles: "C=C(C)C"
  change in expression of gene cspF: "−7.27"
- Molecule smiles: "CCC(C)CC"
  change in expression of gene cspF: "−3.22"

----------
# Test system: Engineered strains of E. coli
# Format: cell-based
# Assay conditions: after solvent exposure, vs positive control

- Molecule: "CC(C)CO [isobutanol]"
  Measured on: "Engineered strains of E. coli"
  change in expression of gene rpoS: 1.73
- Molecule: "CCCCCC [hexane]"
  Measured on: "Engineered strains of E. coli"
  change in expression of gene rpoS: 0.42
- Molecule: "C=C(C)C [isobutene]"
  Measured on: "Engineered strains of E. coli"
  change in expression of gene rpoS: 0.24
- Molecule: "CCC(C)CC [3-methylpentane]"
  Measured on: "Engineered strains of E. coli"
  change in expression of gene rpoS: 0.53

----------
Recorded change in expression of gene fabD by entry
# Tested on: Engineered strains of E. coli
# Assay type: cell-based
# Assay conditions: after solvent exposure, vs positive control

- Compound: "CCCCCC [hexane]"
  change in expression of gene fabD: "−0.89"
- Compound: "C=C(C)C [isobutene]"
  change in expression of gene fabD: "−1.92"
- Compound: "CCC(C)CC [3-methylpentane]"
  change in expression of gene fabD: "−0.97"
- Compound: "CC(C)=O [acetone]"
  change in expression of gene fabD: "−1.74"
- Compound: "C=CC(C)CC (centres unmarked) [3-methyl-1-pentene]"
  change in expression of gene fabD: "−0.87"

----------
# System: Engineered strains of E. coli
# Type: cell-based
# Assay conditions: after solvent exposure, vs positive control
Recorded change in expression of gene gabT by entry
Measurement label: change in expression of gene gabT

- Compound: "CC(C)CO"
  Endpoint value: "−1.57"
- Compound: "C=CC(C)CC (stereo not drawn)"
  Endpoint value: "−0.74"
- Compound: "CCCCCC"
  Endpoint value: "−1.73"

----------
Recorded change in expression of gene rpoC by entry
# Test system: Engineered strains of E. coli
# Assay type: cell-based
# Assay conditions: after solvent exposure, vs positive control

- Molecule smiles: "CC(C)CO"
  change in expression of gene rpoC: "−1.03"
- Molecule smiles: "CC(C)=O"
  change in expression of gene rpoC: "−0.29"
- Molecule smiles: "CCC(C)CC"
  change in expression of gene rpoC: 0.70

----------
# Test system: Engineered strains of E. coli
# Format: cell-based
# Assay conditions: after solvent exposure, vs positive control
Recorded change in expression of gene gadB by entry

- Compound: "CCCCCC [hexane]"
  change in expression of gene gadB: "−0.69"
- Compound: "C=CC(C)CC (centres unmarked) [3-methyl-1-pentene]"
  change in expression of gene gadB: "−2.34"
- Compound: "CC(C)CO [isobutanol]"
  change in expression of gene gadB: 0.96
- Compound: "C=C(C)C [isobutene]"
  change in expression of gene gadB: 2.70
- Compound: "CCC(C)CC [3-methylpentane]"
  change in expression of gene gadB: "−1.26"
